These entries and their values trace back to patent US7799820B2.

Form field: EC50 (one value per entry).
target: recombinant human liver GK (Homo sapiens); assay: glucokinase activation assay (Thio-NADH, G6PDH-coupled); conditions: final glucose concentration 2.5 mM; 30° C.
Sequence (P35557 1-466 isoform P35557-2): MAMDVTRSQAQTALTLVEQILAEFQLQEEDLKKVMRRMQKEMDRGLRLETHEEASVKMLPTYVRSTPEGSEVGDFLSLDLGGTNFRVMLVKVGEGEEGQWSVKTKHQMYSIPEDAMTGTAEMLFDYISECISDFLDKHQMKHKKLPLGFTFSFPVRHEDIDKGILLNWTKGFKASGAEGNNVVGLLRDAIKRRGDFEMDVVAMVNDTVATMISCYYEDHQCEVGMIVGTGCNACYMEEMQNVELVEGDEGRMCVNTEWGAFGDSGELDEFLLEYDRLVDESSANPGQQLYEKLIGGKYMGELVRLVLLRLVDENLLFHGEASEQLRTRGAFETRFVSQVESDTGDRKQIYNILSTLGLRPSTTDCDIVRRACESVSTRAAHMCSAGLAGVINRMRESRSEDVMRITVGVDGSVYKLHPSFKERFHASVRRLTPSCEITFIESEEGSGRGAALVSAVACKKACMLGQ
Answer in nM, number only, no unit symbol.

Here are 2 compounds together with their reported answers.
Cc1nc(-c2ccc(Oc3cc4cc(-c5ccccn5)[nH]c4cc3CN3CCCC3=O)cn2)no1 :: 50
CCS(=O)(=O)c1ccc(Oc2cc3cc(-c4ccccn4)[nH]c3cc2Oc2cccnc2OC(F)F)cn1 :: 180

Pending compound:
Entry CS(=O)(=O)c1ccc(Oc2cc3cc(-c4ccccn4)[nH]c3cc2CN2CCCC2=O)cn1 has what EC50? 70
